// data source = the Human Domainome abundance scans (Beltran et al. 2025)

B1: POU domain, class 5, transcription factor 1, residues 134 to 212; numbered along this chain, Q01860 (parent)
chain: EESQDIKALQKELEQFAKLLKQKRITLGYTQADVGLTLGVLFGKVFSQTTICRFEALQLSFKNMCKLRPLLQKWVEEAD

- Variants of: B1
- measurementProtocol: abundance fitness (aPCA) (normalised: wild type 0, dead -1); higher = more abundant; growth selection in yeast, the domain comes from the species named
- recordedConditions: Homo sapiens
# binarize abundance fitness: threshold -0.08 inclusive, high side criterion met, low side criterion not met

INSERT INTO results (variantid, cat) VALUES
  ('F61I', 'criterion met'),
  ('K7Q', 'criterion not met'),
  ('E55G', 'criterion not met'),
  ('L38W', 'criterion not met'),
  ('Y29C', 'criterion not met'),
  ('E12G', 'criterion not met'),
  ('Q15A', 'criterion met'),
  ('K66M', 'criterion met'),
  ('F16P', 'criterion met'),
  ('T26C', 'criterion met');
